tested on: NCI-H522; assay: NCI-60 SRB screen; format: cell-based, human; conditions: Homo sapiens; NCI-H522; single dose 10^−5 M; read-out: Growth inhibition (%)
METRIC: inhibition at 10 µM

>>> recorded_result("COc1ccc(C2NC(=O)C(Cl)c3c2sc2c(F)cccc32)c(OC)c1 (stereo not drawn)")
"8.58%"
>>> recorded_result("N#CC1C(=O)NC(c2cccc([N+](=O)[O-])c2)c2sc3c(F)cccc3c21 (stereo not drawn)")
"22.4%"
>>> recorded_result("COc1ccc(C2NC(=O)C(Cl)c3c2sc2c(F)cccc32)cc1 (stereo not drawn)")
"21.7%"
>>> recorded_result("O=C1NC(c2cccc([N+](=O)[O-])c2)c2sc3c(F)cccc3c2C1N1CCOCC1 (stereo not drawn)")
"10.4%"
>>> recorded_result("O=C1NC(c2ccccc2[N+](=O)[O-])c2sc3c(F)cccc3c2C1Cl (stereo not drawn)")
"7.95%"
>>> recorded_result("COc1ccc(C=C2Sc3c(F)cccc3C2=O)c(OC)c1")
"6.14%"
>>> recorded_result("COc1ccc(C2NC(=O)C(C#N)c3c2sc2c(F)cccc32)cc1 (stereo not drawn)")
"79.9%"
>>> recorded_result("N#CC1C(=O)NC(c2ccccc2[N+](=O)[O-])c2sc3c(F)cccc3c21 (stereo not drawn)")
"17.3%"
>>> recorded_result("O=C1NC(c2cccc([N+](=O)[O-])c2)c2sc3c(F)cccc3c2C1N1CCCCC1 (stereo not drawn)")
"14%"

====

test system: M14; experiment: NCI-60 SRB screen; type: cell-based, human; details: Homo sapiens; M14; five dose;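 for pIC50: half-maximal inhibitory concentration read as cell viability unlike GI50 net growth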
pIC50: −log10 of the molar value.
METRIC: pIC50

>>> recorded_result("N#CC1C(=O)NC(c2ccccc2[N+](=O)[O-])c2sc3c(F)cccc3c21 (stereo not shown)")
4.55

====

test system: HCT-116; assay: NCI-60 SRB screen; type: cell-based, human; details: Homo sapiens; HCT-116; single dose 10^−5 M; read-out: Growth inhibition (%)
METRIC: inhibition at 10 µM (%)

>>> recorded_result("O=[N+]([O-])c1cccc(C2NC(Cl)=C(Cl)c3c2sc2c(F)cccc32)c1 (stereo not drawn) [Compound 7a]")
13.4
>>> recorded_result("O=C1NC(c2cccc([N+](=O)[O-])c2)c2sc3c(F)cccc3c2C1N1CCOCC1 (stereo not drawn) [Compound 6b]")
12.5
>>> recorded_result("N#CC1C(=O)NC(c2ccccc2[N+](=O)[O-])c2sc3c(F)cccc3c21 (stereo not drawn) [Compound 5c]")
89
>>> recorded_result("O=C1C(=Cc2ccccc2[N+](=O)[O-])Sc2c(F)cccc21 [Compound 2c]")
80.5
>>> recorded_result("O=C1NC(c2cccc([N+](=O)[O-])c2)c2sc3c(F)cccc3c2C1Cl (stereo not drawn) [Compound 4d]")
9.54
>>> recorded_result("COc1ccc(C2NC(=O)C(Cl)c3c2sc2c(F)cccc32)cc1 (stereo not drawn) [Compound 4b]")
1.62
>>> recorded_result("CCN1CCN(C2C(=O)NC(c3cccc([N+](=O)[O-])c3)c3sc4c(F)cccc4c32)CC1 (stereo not drawn) [Compound 6a]")
6.68
>>> recorded_result("N#CC1C(=O)NC(c2cccc([N+](=O)[O-])c2)c2sc3c(F)cccc3c21 (stereo not drawn) [Compound 5d]")
7.78
>>> recorded_result("COc1ccc(C=C2Sc3c(F)cccc3C2=O)c(OC)c1 [Compound 2a]")
-3.66

====

tested on: HCT-116; assay: NCI-60 SRB screen; format: cell-based, human; conditions: Homo sapiens; HCT-116; single dose 10^−5 M; read-out: Growth inhibition (%)
METRIC: inhibition at 10 µM (%)

>>> recorded_result("COc1ccc(C2NC(=O)C(C#N)c3c2sc2c(F)cccc32)cc1 (centres unmarked)")
62.5
>>> recorded_result("O=C1NC(c2cccc([N+](=O)[O-])c2)c2sc3c(F)cccc3c2C1N1CCCCC1 (centres unmarked)")
20.6
>>> recorded_result("COc1ccc(C2NC(=O)C(Cl)c3c2sc2c(F)cccc32)c(OC)c1 (centres unmarked)")
-2.4
>>> recorded_result("O=C1NC(c2ccccc2[N+](=O)[O-])c2sc3c(F)cccc3c2C1Cl (centres unmarked)")
11.4
>>> recorded_result("COc1ccc(C2NC(=O)C(C#N)c3c2sc2c(F)cccc32)c(OC)c1 (centres unmarked)")
77.2

====

test system: HS 578 T; assay: NCI-60 SRB screen; assay type: cell-based, human; conditions: Homo sapiens, five dose;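 for IC50: half-maximal inhibitory concentration read as cell viability unlike GI50 net growth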
METRIC: IC50

>>> recorded_result("N#CC1C(=O)NC(c2ccccc2[N+](=O)[O-])c2sc3c(F)cccc3c21 (stereo not shown)")
"> 100 µM"

====

Measured inhibition at 10 µM accompanies every entry in the list below.
system: SF-295; assay: NCI-60 SRB screen; assay type: cell-based, human; settings: Homo sapiens; single dose 10^−5 M; SF-295, CNS cancer; read-out: Growth inhibition (%)
METRIC: inhibition at 10 µM (%)

>>> recorded_result("CCN1CCN(C2=C(Cl)c3c(sc4c(F)cccc34)C(c3cccc([N+](=O)[O-])c3)N2)CC1 (stereo not drawn)")
0.4
>>> recorded_result("N#CC1=C(Nc2ccccc2F)NC(c2cccc([N+](=O)[O-])c2)c2sc3c(F)cccc3c21 (stereo not drawn)")
-4.19
>>> recorded_result("CCN1CCN(C2=C(C#N)c3c(sc4c(F)cccc34)C(c3cccc([N+](=O)[O-])c3)N2)CC1 (stereo not drawn)")
-1.19
>>> recorded_result("N#CC1=C(N2CCOCC2)NC(c2cccc([N+](=O)[O-])c2)c2sc3c(F)cccc3c21 (stereo not drawn)")
-6.46
>>> recorded_result("O=[N+]([O-])c1cccc(C2NC3=C(Nc4ccccc4N3)c3c2sc2c(F)cccc32)c1 (stereo not drawn)")
-7.1
>>> recorded_result("O=[N+]([O-])c1cccc(C2NC(N3CCCCC3)=C(Cl)c3c2sc2c(F)cccc32)c1 (stereo not drawn)")
-6.6
>>> recorded_result("N#CC1=C(N2CCCCC2)NC(c2cccc([N+](=O)[O-])c2)c2sc3c(F)cccc3c21 (stereo not drawn)")
-9.62
>>> recorded_result("N#CC1=C(Cl)NC(c2cccc([N+](=O)[O-])c2)c2sc3c(F)cccc3c21 (stereo not drawn)")
-4.69
>>> recorded_result("O=[N+]([O-])c1cccc(C2NC(N3CCOCC3)=C(Cl)c3c2sc2c(F)cccc32)c1 (stereo not drawn)")
4.37

====

test system: COLO 205; test: NCI-60 SRB screen; assay type: cell-based, human; conditions: Homo sapiens; COLO 205; five dose;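 for pIC50: half-maximal inhibitory concentration read as cell viability unlike GI50 net growth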
pIC50: −log10 of the molar value.
METRIC: pIC50

>>> recorded_result("N#CC1C(=O)NC(c2ccccc2[N+](=O)[O-])c2sc3c(F)cccc3c21 (stereo not shown)")
4.75

====

test system: SR; experiment: NCI-60 SRB screen; format: cell-based; details: Homo sapiens, single dose 10^−5 M, Leukaemia, read-out: Growth inhibition (%)
METRIC: inhibition at 10 µM (%)

>>> recorded_result("O=[N+]([O-])c1cccc(C2NC(N3CCCCC3)=C(Cl)c3c2sc2c(F)cccc32)c1 (stereo not drawn) [Compound 8c]")
10.1
>>> recorded_result("N#CC1=C(Nc2ccccc2F)NC(c2cccc([N+](=O)[O-])c2)c2sc3c(F)cccc3c21 (stereo not drawn) [Compound 10]")
13
>>> recorded_result("O=[N+]([O-])c1cccc(C2NC(N3CCOCC3)=C(Cl)c3c2sc2c(F)cccc32)c1 (stereo not drawn) [Compound 8b]")
20.4
>>> recorded_result("O=[N+]([O-])c1cccc(C2NC3=C(Nc4ccccc4N3)c3c2sc2c(F)cccc32)c1 (stereo not drawn) [Compound 9]")
16.5
>>> recorded_result("CCN1CCN(C2=C(Cl)c3c(sc4c(F)cccc34)C(c3cccc([N+](=O)[O-])c3)N2)CC1 (stereo not drawn) [Compound 8a]")
23.5
>>> recorded_result("N#CC1=C(Cl)NC(c2cccc([N+](=O)[O-])c2)c2sc3c(F)cccc3c21 (stereo not drawn) [Compound 7b]")
15.9
>>> recorded_result("CCN1CCN(C2=C(C#N)c3c(sc4c(F)cccc34)C(c3cccc([N+](=O)[O-])c3)N2)CC1 (stereo not drawn) [Compound 8d]")
11.8
>>> recorded_result("N#CC1=C(N2CCCCC2)NC(c2cccc([N+](=O)[O-])c2)c2sc3c(F)cccc3c21 (stereo not drawn) [Compound 8f]")
11.1
>>> recorded_result("N#CC1=C(N2CCOCC2)NC(c2cccc([N+](=O)[O-])c2)c2sc3c(F)cccc3c21 (stereo not drawn) [Compound 8e]")
9.91

====

tested on: HOP-62; test: NCI-60 SRB screen; format: cell-based, human; settings: Homo sapiens; HOP-62; five dose;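 for IC50: half-maximal inhibitory concentration read as cell viability unlike GI50 net growth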
METRIC: IC50 (µM)

>>> recorded_result("N#CC1C(=O)NC(c2ccccc2[N+](=O)[O-])c2sc3c(F)cccc3c21 (stereo not shown)")
22.9
